In this section, each of the substances is paired with its reported CC50.
- experimental-details: in vitro
- Type: cell-based
- condition-details: human; uninfected MT-2 cells, XTT assay; read-out: CC50 (half maximal cytotoxic concentration)
Bridge positions count the residues as written; N and C are the ends. I, II: the chains in the order shown.
Numbers only here, please. The scale is µM.

I: Ac-IKKKIEAIEKLLQLTVWGIKQLQARIL-NH2 / II: Ac-IKKKIEAIEKLLQLTVWGIKQLQARIL-NH2 / III: Ac-IKKKIEAIEKLLQLTVWGIKQLQARIL-NH2 (amide I:4-II:9, I:9-III:4, II:4-III:9) [(IZ10N17)3] | 2

Could you now look at the following substance, please?
Input I: Ac-IKKEQEAIKKKIEAIEKLLQLTVWGIKQLQARIL-NH2 / II: Ac-IKKEQEAIKKKIEAIEKLLQLTVWGIKQLQARIL-NH2 / III: Ac-IKKEQEAIKKKIEAIEKLLQLTVWGIKQLQARIL-NH2 (amide I:11-II:16, I:16-III:11, II:11-III:16) [(IZ17N17)3] , output reported CC50.
4

Source of measurements: paper PMC4999862
